assay: Human Plasma Protein Binding (Test B); assay type: in vitro ADME; details: fraction unbound (fu)
Measured Parameter: Test B Human Plasma Protein Binding (% free)

Worked cases, Test B Human Plasma Protein Binding (% free) given:
COc1cc(F)c(O[C@H]2C[C@@H](C(=O)O)C2)cc1C(=O)NC1[C@H]2CC[C@H](C2)[C@@H]1C(=O)Nc1cccc(S(=O)(=O)C(F)(F)F)c1 (some centres unmarked); 2.5
COc1cc(F)c(O[C@H]2C[C@H](C(=O)O)C2)cc1C(=O)NC1[C@H]2CC[C@H](C2)[C@@H]1C(=O)Nc1cccc(S(=O)(=O)C(F)(F)F)c1 (some centres unmarked); 1.5
COc1cc(F)c(O[C@H]2CC[C@@H](C(=O)O)CC2)cc1C(=O)N[C@H]1[C@@H](C(=O)Nc2ccc(F)c(C(F)(F)F)c2)[C@@H]2C=C[C@H]1C2 (single isomer, unassigned); 0.86
CCOCC1(CNC(=O)[C@H]2[C@@H]3CC[C@@H](C3)[C@H]2NC(=O)c2cc(O[C@H]3CC[C@@](C)(C(=O)O)CC3)c(C#N)cc2OC)CCC1; 6.4
COc1cc(C#N)c(O[C@H]2C[C@@](C)(C(=O)O)C2)cc1C(=O)N[C@@H]1[C@H]2CC[C@H](C2)[C@@H]1C(=O)NCC1(C)CCC1; 0.59
COc1cc(F)c(O[C@H]2CC[C@@H](C(N)=O)CC2)cc1C(=O)N[C@@H]1[C@H]2CC[C@H](C2)[C@@H]1C(=O)Nc1ccc(F)c(C(F)(F)F)c1; 0.44

I: COc1cc(C#N)c(O[C@H]2CC[C@@](C)(C(=O)O)CC2)cc1C(=O)N[C@@H]1[C@H]2CC[C@H](C2)[C@@H]1C(=O)NCC(=O)NC(C)C
II: COc1cc(Cl)c(O[C@H]2CC[C@@](C)(C(=O)O)CC2)cc1C(=O)N[C@@H]1[C@@H]2CC[C@@H](C2)[C@@H]1C(=O)NCC1(C)CCC1
III: COc1cc(Cl)c(O[C@H]2CC[C@@](C)(C(=O)O)CC2)cc1C(=O)N[C@@H]1[C@H]2CC[C@H](C2)[C@@H]1C(=O)NCC(C)(C)C
IV: COc1cc(F)c(O[C@H]2CC[C@@H](C(=O)O)CC2)cc1C(=O)N[C@@H]1[C@H]2CC[C@H](C2)[C@@H]1C(=O)Nc1ccc(F)c(C(F)(F)F)c1
Q) Put the items in sequence by Test B Human Plasma Protein Binding (% free), from largest down. Enter labels, ranked according to the request.
A) I, III, IV, II
(I: 50 % free, III: 5.3 % free, IV: 1 % free, II: 0.48 % free)

----------
molecular target: human RXFP1 (Homo sapiens, UniProt Q9HBX9); assay: RXFP1 Hu cAMP (Test A); format: cell-based; parameters: expressed in transfected cells; host or cells: Jump-In T-REx CHO-K1 cells (ThermoFisher), induced with 10 ng/ml doxycycline for 24 h; settings: RXFP1 Hu cAMP
Sequence (Q9HBX9 whole entry): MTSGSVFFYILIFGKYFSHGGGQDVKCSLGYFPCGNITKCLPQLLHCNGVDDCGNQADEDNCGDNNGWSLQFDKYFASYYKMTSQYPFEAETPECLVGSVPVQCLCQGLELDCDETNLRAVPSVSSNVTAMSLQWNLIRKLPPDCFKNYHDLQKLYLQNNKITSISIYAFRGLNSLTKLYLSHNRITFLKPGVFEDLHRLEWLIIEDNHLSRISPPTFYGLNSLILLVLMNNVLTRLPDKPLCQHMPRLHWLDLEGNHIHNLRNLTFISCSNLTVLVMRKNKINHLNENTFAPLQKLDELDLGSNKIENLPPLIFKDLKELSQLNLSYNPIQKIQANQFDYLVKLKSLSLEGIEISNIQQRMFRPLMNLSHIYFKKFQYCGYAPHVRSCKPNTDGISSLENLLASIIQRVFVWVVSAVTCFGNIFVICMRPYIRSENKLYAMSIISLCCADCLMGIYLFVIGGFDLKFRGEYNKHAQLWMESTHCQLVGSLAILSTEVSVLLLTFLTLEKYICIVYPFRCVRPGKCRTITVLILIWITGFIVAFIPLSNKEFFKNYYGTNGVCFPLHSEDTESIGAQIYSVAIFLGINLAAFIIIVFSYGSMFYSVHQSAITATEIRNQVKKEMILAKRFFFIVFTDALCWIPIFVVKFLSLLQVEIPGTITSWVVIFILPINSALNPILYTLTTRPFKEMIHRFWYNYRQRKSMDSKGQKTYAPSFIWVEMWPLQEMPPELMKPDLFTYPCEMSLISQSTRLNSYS
Measured Parameter: Test A Sinf (%)

COc1cc(F)c(O[C@H]2CC[C@@H](C(=O)O)CC2)cc1C(=O)N[C@@H]1[C@H]2CC[C@H](C2)[C@@H]1C(=O)Nc1cc(C(F)(F)F)ncn1; 81

a: COc1cc(F)c(-c2ccc(C(=O)O)cn2)cc1C(=O)N[C@H]1[C@@H](C(=O)Nc2cccc(S(=O)(=O)C(F)(F)F)c2)[C@@H]2C=C[C@H]1C2 (racemic)
b: COc1cc(F)c(-c2ccc(O)c(C(=O)O)c2)cc1C(=O)N[C@H]1[C@@H]2CC[C@@H](C2)[C@H]1C(=O)Nc1cccc(S(=O)(=O)C(F)(F)F)c1 (single isomer, unassigned) [Example 557]
Q) Smaller Test A Sinf value, a vs b ? Refer to your chosen item by its label in the answer.
A) b
(b: 68%, a: 104%)
